Origin of values: paper PMC11501026

experiment: in situ brain/choroid plexus perfusion: CNS uptake of [^3H]-arginine, [^3H]-ADMA and [^14C]-sucrose (multiple-time and single-time uptake analysis); settings: male, BALB/c, mouse, CSF, [3H] ADMA and [14C] Sucrose uptake, 2.5 mins, 5ml/min; mean
Structures can show the parent of a compound that is named as a salt.
property: Kp at […]

Return reported Kp at […]; argument: CN(C)C(N)=NCCC[C@H](N)C(=O)O [ADMA, N^G,N^G-dimethylarginine dihydrochloride] 0.122

###

system: [3H]-ADMA transport across the blood-brain and blood-CSF barriers; test: cross-inhibition, in situ perfusion: [^3H]-ADMA with 100 μM unlabelled L-arginine; type: in vivo, mouse; details: male, Balb/c, mouse, choroid plexus, other: in situ brain perfusion, with 100 µM unlabelled L-arginine, Difference (ADMA minus Sucrose), choroid plexus, + 100uM Arg, 10 mins, Balb/c ♂, 5ml/min; individual mice
Counter-ions that a name gives are not always drawn.
property: Kp at 10 min, 62.5 nM
Respond numerically, and do not add a unit to the figure.

Return reported Kp at 10 min, 62.5 nM; argument: CN(C)C(N)=NCCC[C@H](N)C(=O)O [ADMA, N^G,N^G-dimethylarginine dihydrochloride] 0.469
